Origin of values: patent US8618170B2

# measurement_notes: Pharmacokinetics after IV or oral administration in dog
# Assay type: in vivo
# assay_context: male, beagle, dog, plasma, iv, 10 mg/kg, Beagle dog M, 1 h IV infusion, EES (sol'n)
outcome_measure: AUC(0-inf) (ng·h/mL)

molecule: CN(NC(=O)CC(=O)NN(C)C(=S)c1ccccc1)C(=S)c1ccccc1 [Compound 1]
outcome_measure: AUC(0-inf)
readout_number: 25800

----------
# measurement_notes: Pharmacokinetics after IV or oral administration in rat
# Type: in vivo, SD rat
# assay_context: male, Sprague-Dawley, rat, plasma, po, 50 mg/kg, SD rat M, 0.5% MC (suspension)
# Experimental: The pharmacokinetics of compounds of the invention were compared in mouse, rat and dog by either intravenous or oral administration in various formulations including drug powder in capsules or in combination with generally recognized as safe (GRAS) excipients. […] Compounds were extracted by protein precipitation and analyzed by LC-UV or LC-MS/MS. […] Oral bioavailability (% F) was calculated based on AUC of Compound 1. […]

compound: CN(NC(=O)CC(=O)NN(C)C(=S)c1ccccc1)C(=S)c1ccccc1 [Compound 1]
AUC(0-inf), ng·h/mL: 1220
